Hey, just so you know, these numbers are from patent US20240327331A1.

biological target: GPR3 receptor (Homo sapiens); test: PathHunter β-arrestin2 recruitment assay in CHO-K1 cells expressing GPR3-PK; assay type: cell-based; set-up: host or cells: CHO-K1 (PathHunter eXpress kit); conditions: 0.1 μM, 1 μM and 10 μM; FIG. 1
Sequence (P46089 whole entry): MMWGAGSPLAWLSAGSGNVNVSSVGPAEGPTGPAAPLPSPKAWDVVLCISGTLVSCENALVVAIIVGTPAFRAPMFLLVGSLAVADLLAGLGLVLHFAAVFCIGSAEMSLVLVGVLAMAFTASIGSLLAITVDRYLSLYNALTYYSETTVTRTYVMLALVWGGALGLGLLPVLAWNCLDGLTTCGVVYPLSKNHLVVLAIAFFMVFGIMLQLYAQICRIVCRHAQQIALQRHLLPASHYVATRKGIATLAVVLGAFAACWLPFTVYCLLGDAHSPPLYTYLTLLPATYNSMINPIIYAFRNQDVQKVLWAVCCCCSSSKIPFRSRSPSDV
parameterMeasured: mode of action at the GPR3 receptor (β-arrestin2 recruitment)

1) C=C(C)[C@@H]1CCC(CO)=C[C@H]1c1c(O)cc(CCCCC)cc1O [Example 7-OH-CBD, 7-hydroxy-CBD]	weak agonists
2) C=C(C)[C@@H]1C[C@H](O)C(C)=C[C@H]1c1c(O)cc(CCCCC)cc1O	weak agonists
